Source: patent EP4386000A1

target: T1, cyno CD25-his (NCBI-H6WS54, Met1-Arg213) (cyno); test: ELISA, cyno CD25-his coated
T1 construct: range 1-213; Range begins at Met1 (includes the signal peptide)
// EC50 lookup, one value per entry
Give the value, in units of µg/mL, as a plain number.

Past entries and their recorded results:
binder: chimeric antibody 2047-10H1L2 (antibody, human IgG1, kappa, V domains shown, Chimeric, human IgG1/kappa; also called 2047-10ix) VH: QVQLQQSGPELVRPGVSVKISCKGSGYTFTDYAMHWVKQSHAKSLEWIGVISTYNGNTNYNQKFKGKATMTVDKSSSTAYMELARLTSEDSAIYYCARSYGNYPFDYWGQGTTLTVSS VL: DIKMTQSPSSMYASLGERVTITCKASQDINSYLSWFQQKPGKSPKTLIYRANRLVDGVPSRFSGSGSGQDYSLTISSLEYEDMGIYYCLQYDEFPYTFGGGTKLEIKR
test-readout: EC50
observed-measurement: 2.6
//
binder: chimeric antibody 2046-24H2L1 (antibody, human IgG1, kappa, V domains shown, Chimeric, human IgG1/kappa; also called 2046-24ix) VH: DVQLQESGPGLVKPSQSLSLTCTVTGYSITSDYAWNWIRQFPGNKLEWMGYISYGGTTIYNPSLKSRISITRDTSKNQFFLQLNSVTTEDTATYYCARWLLQNYYAMDYWGQGTSVTVSS VL: DVVMTQTPLSLPVSLGDQASISCRSSQSLVHSNGNTYLHWYLQKPGQSPKVLIYKVSNRFSGVPDRFSGSGSGTDFTLKISRVEAEDLGVYFCSQNTHVPLTFGAGTKLELKR
test-readout: EC50
observed-measurement: 0.0424
//
binder: chimeric antibody 2046-111H2L1 (antibody, human IgG1, kappa, V domains shown, Chimeric, human IgG1/kappa) VH: DVQLQESGPGLVKPSQSLSLTCTVTGHSITSDYAWNWIRQFPGNKLEWMGYISYSGSTIYNPSLKSRISITRDTSKNQFFLQLNSVTTEDTATYYCARWLLQNYYAMDYWGQGTSVTVSS VL: DVVMTQTPLSLPVSLGDQASISCRSSQSLVHSNGNTYLHWYLRKPGQSPKLLIYKVSNRFSGVPDRFSGSGSGTDFTLKISRVEAEDLGVYFCSQSTHVPLTFGAGTKLELKR
test-readout: EC50
observed-measurement: 0.0447
//
binder: chimeric antibody 2047-3H8L2 (antibody, human IgG1, kappa, V domains shown, Chimeric, human IgG1/kappa; also called 2047-3ix) VH: QVQLKQSGAELVKPGASVKMSCKTSGYTFTDYVISWVKQRTGQGLEWIGEIYPGSGSTYYNEKFKGKATLTADISSNTAYMQLSSLTSEDSAVYFCASINFDYWGHGTTLTVSS VL: DIVMTQSPATLSVTPGDRVSLSCRASQSISDYLHWYQQKSHESPRLLIKYASQSISGIPSRFSGSGSGSDFTLSINSVEPEDVGVYYCQNGHSFPYTFGGGTKLEIKR
test-readout: EC50
observed-measurement: 0.189
//
binder: chimeric antibody 2046-18H1L1 (antibody, human IgG1, kappa, V domains shown, Chimeric, human IgG1/kappa; also called 2046-18ix) VH: DVQLQESGPGLVKPSQSLSLTCTVTGYSITSDYAWNWIRQFPGNKLEWMGYISYSGITIYNPSLKSRISITRDTSKNQFFLQLNSVTTEDTATYYCARWLLQIYYAMDYWGQGTSVTVSS VL: DVVMTQTPLSLPVSLGDQASISCSSSQSLVHSNGNTYLHWYLHKPGQSPKLLIYKVSNRFSGVPDRFSGSGSGTDFTLKISRVEAEDLGVYFCSQSTHVPLTFGAGTKLELKR
test-readout: EC50
observed-measurement: 0.0483

# next binder below
stdin: // fetch EC50 given entry chimeric antibody 2046-2H1L1 (antibody, human IgG1, kappa, V domains shown, Chimeric (murine V, human IgG1/kappa); also called 2046-2ix) VH: DVQLQESGPGLVKPSQSLSLTCTVTGYSITSDYAWNWIRHFPGNKLEWMGYITYSGSTVYNPSLKSRISITRDTSKNHFFLQLNSVTTEDTATYYCARWLLQIYYAMDYWGQGTSVTVSS VL: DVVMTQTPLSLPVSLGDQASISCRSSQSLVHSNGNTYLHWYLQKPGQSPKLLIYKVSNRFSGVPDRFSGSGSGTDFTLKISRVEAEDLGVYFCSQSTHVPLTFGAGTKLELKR
stdout: 0.0594
